Values were extracted from ChEMBL document CHEMBL4689842.

tested on: Fibroblast; assay: Multiplex assay against human fibroblast; format: toxicity, cell-based; conditions: 24 h, 10 µM, compound concentration 10 uM, replicate 2

{"compound": "CCCCCNC(=N)N/N=C/c1c[nH]c2ccc(OC)cc12.O=C(O)/C=C\\C(=O)O [TEGASEROD MALEATE]", "Population Mitotic Cells (%)": 0}
{"compound": "Cc1ccc(NC(=O)Nc2cc(C(F)(F)F)ccc2F)cc1Nc1ccc2c(c1)NC(=O)/C2=C\\c1ccc[nH]1", "Population Mitotic Cells (%)": 50}
{"compound": "CN(c1cc(C(F)(F)F)nc(OCCC(=O)O)n1)c1cccc2c1CCC2", "Population Mitotic Cells (%)": 100}
{"compound": "COc1ccccc1-c1cc(Nc2cccc(CS(N)(=O)=O)c2)ncn1", "Population Mitotic Cells (%)": 50}
{"compound": "Cc1c(Nc2ccc(S(=O)(=O)N3CCN(C)CC3)cc2F)nc2ccc(Nc3cnn(C4CC4)c3)cn2c1=O", "Population Mitotic Cells (%)": 100}
